Test system: Mycobacterium tuberculosis
run description: Antibacterial activity against Mycobacterium tuberculosis H37Rv by microbroth dilution method
Format: functional
MIC values for the compounds below.
The response must be a number in µg/mL with no trailing unit.

Here's what some known entries look like.
INSERT INTO measurements (smiles_structure, quantity_kind, unit_of_measurement, endpoint_value) VALUES
  ('NCCC[C@H](N)CC(=O)NCCC[C@H](N)CC(=O)N[C@@H]1[C@H](O)[C@@H](O)[C@@H](COC(N)=O)O[C@H]1/N=C1\N[C@@H]2[C@H](O)CNC(=O)[C@H]2N1', 'MIC', 'µg/mL', 16),
  ('NCCC[C@H](N)CC(=O)NCCC[C@H](N)CC(=O)N[C@@H]1[C@H](O)[C@@H](OC(N)=O)[C@@H](CO)O[C@H]1NC1=N[C@@H]2C(=O)NC[C@@H](O)[C@H]2N1', 'MIC', 'µg/mL', 1);

Okay, now this compound:
Sample `NNC(=O)c1ccncc1` ; MIC observed: 0.0625

----------
Tested on: Escherichia coli
run description: Antibacterial activity against Escherichia coli ATCC 25922 by microbroth dilution method
Type: functional
quantity kind: MIC

INSERT INTO results (smiles_structure, endpoint_value) VALUES
  ('CC(=O)N[C@@H](CCCNC(=O)C[C@@H](N)CCCN)CC(=O)N[C@@H]1[C@H](O)[C@@H](O)[C@@H](COC(N)=O)O[C@H]1/N=C1\N[C@@H]2[C@H](O)CNC(=O)[C@H]2N1', '> 256 µg/mL'),
  ('CC(=O)N[C@@H](CCCNC(=O)C[C@@H](N)CCCNC(=O)C[C@@H](N)CCCN)CC(=O)N[C@@H]1[C@H](O)[C@@H](OC(N)=O)[C@@H](CO)O[C@H]1/N=C1\N[C@H]([C@H](O)CN)[C@@H](C(=O)O)N1', '64 µg/mL');

Read the next record carefully.
MIC value, target or system Escherichia coli, for `NCCC[C@H](N)CC(=O)NCCC[C@H](N)CC(=O)N[C@@H]1[C@H](O)[C@@H](O)[C@@H](COC(N)=O)O[C@H]1/N=C1\N[C@@H]2[C@H](O)CNC(=O)[C@H]2N1` : > 256 µg/mL

----------
Tested on: Morganella morganii
run description: Antibacterial activity against multidrug-resistant Morganella morganii 07-09 by microbroth dilution method
Format: functional
Each entry below lists one item and its recorded MIC value.

INSERT INTO measurements (smiles_structure, experimental_system, endpoint_value) VALUES
  ('NCCC[C@H](N)CC(=O)NCCC[C@H](N)CC(=O)N[C@@H]1[C@H](O)[C@@H](OC(N)=O)[C@@H](CO)O[C@H]1NC1=N[C@@H]2C(=O)NC[C@@H](O)[C@H]2N1', 'Morganella morganii', '4 µg/mL'),
  ('CC(=O)N[C@@H](CCCNC(=O)C[C@@H](N)CCCNC(=O)C[C@@H](N)CCCN)CC(=O)N[C@@H]1[C@H](O)[C@@H](OC(N)=O)[C@@H](CO)O[C@H]1/N=C1\N[C@H]([C@H](O)CN)[C@@H](C(=O)O)N1', 'Morganella morganii', '> 256 µg/mL'),
  ('CC(=O)N[C@@H](CCCNC(=O)C[C@@H](N)CCCNC(=O)C[C@@H](N)CCCN)CC(=O)N[C@@H]1[C@H](O)[C@@H](O)[C@@H](COC(N)=O)O[C@H]1/N=C1\N[C@H]([C@H](O)CN)[C@@H](C(=O)O)N1', 'Morganella morganii', '> 256 µg/mL'),
  ('NCCC[C@H](N)CC(=O)NCCC[C@H](N)CC(=O)N[C@@H]1[C@H](O)[C@@H](O)[C@@H](COC(N)=O)O[C@H]1/N=C1\N[C@@H]2[C@H](O)CNC(=O)[C@H]2N1', 'Morganella morganii', '> 256 µg/mL'),
  ('C[C@H]1COc2c(N3CCN(C)CC3)c(F)cc3c(=O)c(C(=O)O)cn1c23.C[C@H]1COc2c(N3CCN(C)CC3)c(F)cc3c(=O)c(C(=O)O)cn1c23.O', 'Morganella morganii', '16 µg/mL');

Record `CC(=O)N[C@@H](CCCNC(=O)C[C@@H](N)CCCNC(=O)C[C@@H](N)CCCN)CC(=O)N[C@@H]1[C@H](O)[C@@H](O)[C@@H](COC(N)=O)O[C@H]1/N=C1\N[C@@H]2[C@H](O)CNC(=O)[C@H]2N1` , field MIC: > 256 µg/mL

Just so you know, measured MIC for `CC(=O)N[C@@H](CCCNC(=O)C[C@@H](N)CCCN)CC(=O)N[C@@H]1[C@H](O)[C@@H](O)[C@@H](COC(N)=O)O[C@H]1/N=C1\N[C@@H]2[C@H](O)CNC(=O)[C@H]2N1` came out at > 256 µg/mL
